Source: ChEMBL document CHEMBL3763108

Assign Ratio IC50 to each entry below.
Target: Cholinesterases; ACHE & BCHE (Homo sapiens) (UniProt P06276+P22303)
Sequence (P06276 whole entry, looked up): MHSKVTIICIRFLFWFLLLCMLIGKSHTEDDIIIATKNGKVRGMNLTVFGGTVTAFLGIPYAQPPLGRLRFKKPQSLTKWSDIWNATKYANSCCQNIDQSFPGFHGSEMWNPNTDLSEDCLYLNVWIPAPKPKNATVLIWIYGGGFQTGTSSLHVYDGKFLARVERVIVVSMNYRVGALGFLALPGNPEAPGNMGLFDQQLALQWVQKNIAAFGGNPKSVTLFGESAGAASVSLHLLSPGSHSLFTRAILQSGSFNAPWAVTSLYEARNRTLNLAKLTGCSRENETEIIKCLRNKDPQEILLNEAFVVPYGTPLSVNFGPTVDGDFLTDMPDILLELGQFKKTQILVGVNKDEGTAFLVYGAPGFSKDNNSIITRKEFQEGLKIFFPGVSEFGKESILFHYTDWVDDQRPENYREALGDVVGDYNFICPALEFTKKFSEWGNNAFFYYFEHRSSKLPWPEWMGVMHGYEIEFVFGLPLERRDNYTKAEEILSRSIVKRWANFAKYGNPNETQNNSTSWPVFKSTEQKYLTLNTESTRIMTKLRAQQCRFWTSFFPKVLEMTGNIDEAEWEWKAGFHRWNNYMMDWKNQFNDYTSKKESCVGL
Sequence (P22303 whole entry, looked up): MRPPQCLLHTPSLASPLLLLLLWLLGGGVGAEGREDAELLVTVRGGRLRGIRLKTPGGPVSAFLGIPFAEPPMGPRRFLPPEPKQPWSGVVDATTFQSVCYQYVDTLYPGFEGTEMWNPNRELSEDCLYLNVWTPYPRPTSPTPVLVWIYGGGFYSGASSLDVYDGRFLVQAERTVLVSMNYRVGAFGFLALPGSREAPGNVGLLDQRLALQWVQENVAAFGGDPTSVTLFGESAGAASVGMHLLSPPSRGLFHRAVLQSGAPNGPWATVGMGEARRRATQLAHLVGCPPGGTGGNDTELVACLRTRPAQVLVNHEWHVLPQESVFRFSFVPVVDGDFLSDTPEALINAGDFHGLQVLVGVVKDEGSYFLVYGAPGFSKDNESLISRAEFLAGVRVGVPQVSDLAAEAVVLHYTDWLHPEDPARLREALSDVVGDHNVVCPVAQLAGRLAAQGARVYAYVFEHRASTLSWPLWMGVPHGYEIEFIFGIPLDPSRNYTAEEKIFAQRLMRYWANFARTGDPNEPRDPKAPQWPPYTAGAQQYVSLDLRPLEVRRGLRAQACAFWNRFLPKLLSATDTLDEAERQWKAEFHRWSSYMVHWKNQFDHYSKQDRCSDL
Experiment: Selectivity ratio of IC50 for BChE (unknown origin) to IC50 for AChE (unknown origin) by Ellman's kinetic method
Please respond with just the number, no unit label.

Bench note: what Ratio IC50 did CC1(C)CNC2=C([N+](=O)[O-])C3(C(=O)Nc4ccc(F)cc43)C(C#N)=C(N)N2C1 (stereo unspecified) show?
14.9

Can you look up the measured Ratio IC50 of Cc1ccc2c(c1)C1(C(=O)N2)C(C#N)=C(N)N2CCNC2=C1[N+](=O)[O-] (stereo unspecified) for me?
4.21

// query Ratio IC50 value for entry CC1(C)CNC2=C([N+](=O)[O-])C3(C(=O)Nc4ccccc43)C(C#N)=C(N)N2C1 (stereo unspecified)
8.34

Find the recorded Ratio IC50 belonging to N#CC1=C(N)N2CCNC2=C([N+](=O)[O-])C12C(=O)Nc1ccc([N+](=O)[O-])cc12 (stereo unspecified) and report it.
4.34

Recorded Ratio IC50 of N#CC1=C(N)N2CCNC2=C([N+](=O)[O-])C12C(=O)c1cccc3cccc2c13 (stereo unspecified) , please.
3.36

Could you share which Ratio IC50 value was measured for N#CC1=C(N)N2CCCNC2=C([N+](=O)[O-])C12C(=O)c1cccc3cccc2c13 (stereo unspecified) ?
3.96

Look up Ratio IC50: CC1(C)CNC2=C([N+](=O)[O-])C3(C(=O)c4ccc(Br)c5c(Br)ccc3c45)C(C#N)=C(N)N2C1 (stereo unspecified)
3.98

Which Ratio IC50 value belongs to Cc1ccc2c(c1)C1(C(=O)N2)C(C#N)=C(N)N2CC(C)(C)CNC2=C1[N+](=O)[O-] (stereo unspecified) ?
10.6

I would be grateful if you could share the reported Ratio IC50 for N#CC1=C(N)N2CCCNC2=C([N+](=O)[O-])C12C(=O)c1ccc(Br)c3c(Br)ccc2c13 (stereo unspecified) .
3.68

Entry N#CC1=C(N)N(Cc2ccccc2)C(NCc2ccccc2)=C([N+](=O)[O-])C12C(=O)Nc1ccccc12 (stereo unspecified) has what Ratio IC50?
3.86

What Ratio IC50 value was documented for this compound, N#CC1=C(N)N2CCNC2=C([N+](=O)[O-])C12C(=O)Nc1ccc(F)cc12 (stereo unspecified) ?
5.12
